The measured values listed here are drawn from ChEMBL document CHEMBL1201862.

Test system: K562
experiment summary: NCI tumour cell line growth inhibition, 48 h
Active and inactive are the calls of the source. Cut-off read from the data, not from the text of the source: active = GI50 up to about 1.1 µM and inactive = higher.
Items are presented alongside their recorded GI50.
measure name: GI50

compound	test result
Cc1ccc(S(=O)(=O)NC(=O)NC23CC4CC(CC(F)(C4)C2)C3)cc1	> 100 µM (inactive)
NC(=O)c1c(NC=O)ncn1C1OCC(O)C(O)C1O (stereo unspecified)	> 100 µM (inactive)
CNc1ccc2nc(-c3ccc(OC(=O)N(C)C)cc3)cn2c1	21 µM (inactive)
O=P1(O)C=CC2(CCCC2)O1	> 100 µM (inactive)
NC1=C(N2CCCCC2)C(=O)NC2=N/C(=C\c3ccco3)C(=O)N21	> 100 µM (inactive)
CSc1n[n+]2c(s1)SCCC2	> 100 µM (inactive)
CC1(C)O[C@H]2OC(CO[Si](C)(C)C(C)(C)C)C(N=[N+]=[N-])[C@H]2O1 (stereo partly specified)	13.3 µM (inactive)
COc1cc(C2c3cc4c(cc3OC(N3CCCCC3)C2C)OCO4)cc(OC)c1O (stereo unspecified)	4.06 µM (inactive)
CN1CN(C(=O)N2CN(C)C(=O)N(C)C2)CN(C)C1=O	> 100 µM (inactive)
O=C1CCC2(c3ccc(Cl)cc3)Nc3ccccc3N12 (stereo unspecified)	54.5 µM (inactive)
CCOC(C)O[C@H]1C(=O)OCC1(C)C (stereo partly specified)	80.7 µM (inactive)

====

Tested on: 786-0
experiment summary: NCI tumour cell line growth inhibition, 48 h
Activity calls are given as the source filed them. Rule as the data show it: active = GI50 up to about 1.1 µM and inactive = higher.
The entries below come with measured GI50 values attached.
measure name: GI50

compound	system name	measure name	test result
CNc1ccc2nc(-c3ccc(OC(=O)N(C)C)cc3)cn2c1	786-0	GI50	14.5 µM (inactive)
CC1CCCN(CP(=O)(c2ccccc2)c2ccccc2)C1 (stereo not given)	786-0	GI50	> 100 µM (inactive)
Cc1ccc(/C=C2\CN(C)CC3=C2OC(N)=C(C#N)C3c2ccc(C)cc2)cc1 (stereo not given)	786-0	GI50	15.6 µM (inactive)
C=C(C)C(=O)OC1CC2(C)OC(=CC2=O)C(C)CC2OC(=O)C(=C)C12 (stereo not given)	786-0	GI50	3.24 µM (inactive)
C[B@@-]1(c2ccc(C(F)(F)F)cc2)N[C@@H](Cc2ccccc2)C(=O)O1	786-0	GI50	> 100 µM (inactive)

====

Listed next: entries and their corresponding GI50.
Tested on: U-251
experiment summary: NCI tumour cell line growth inhibition, 48 h
Active and inactive are the calls of the source. No stated cut-off is given here; in the data, active = GI50 up to about 1.1 µM and inactive = higher.

compound	system name	GI50
Cc1ccc(C(=O)Nc2ncn(C3CC(O)C(CO)O3)c(=O)n2)cc1 (configuration not stated)	U-251	> 100 µM (inactive)
O=C1/C(=C/c2ccc(Cl)cc2)CCC/C1=C\c1ccc(O)c(CN2CCCCC2)c1	U-251	16.6 µM (inactive)
O=[N+]([O-])O [NITRIC ACID]	U-251	> 100 µM (inactive)
O=C1N2CCc3c([nH]c4ccccc34)C23CC2CCCC12S3 (configuration not stated)	U-251	> 50 µM (inactive)
CC(C)NC(=O)OCC[S+]([O-])c1c(Cl)c(Cl)nn1C (configuration not stated)	U-251	33.2 µM (inactive)
O=C(Nc1nn(C(=O)c2ccc(Cl)cc2)c(=O)s1)c1ccc(Cl)cc1	U-251	> 100 µM (inactive)
O=C1C[C@H]2CC3(CC[C@H]2CN1)OCCO3	U-251	> 100 µM (inactive)
COc1ccc(C2C3CCc4ccccc4C3=NN2S(=O)(=O)c2ccc(Cl)cc2)cc1 (configuration not stated)	U-251	17.6 µM (inactive)
C=C(C)COc1cc(/N=C(/S)OC(C)C)ccc1Cl	U-251	16.9 µM (inactive)
C=CC[C@@]1(C(=O)OC)[C@H](Sc2ccccc2)C1(C)C	U-251	49.2 µM (inactive)
O=C1OCC2OC(=O)c3cc(O)c(O)c(O)c3-c3c(O)c(O)c(O)c4c3C(=O)OC(C2OC(=O)c2cc(O)c(O)c(O)c2-c2c1cc(O)c(O)c2O)C1OC(=O)c2c-4c(O)c(O)c(O)c2[C@@H]1C(O)C(O)C(O)C(O)CO (some centres not stated)	U-251	20.4 µM (inactive)
CC(=O)Nc1ccc(/C=C/c2ccc(NC(=O)Nc3ccc(/C=C/c4ccc(NC(C)=O)cc4S(=O)(=O)O)c(S(=O)(=O)O)c3)cc2S(=O)(=O)O)c(S(=O)(=O)O)c1	U-251	> 100 µM (inactive)
CC(=O)O[C@@H](C1C[C@@H](C)[C@H]2[C@@](O)(O1)[C@H](O)[C@@]1(C)C3=CC[C@H]4C(C)(C)[C@@H](OC5OCC(O)C(O)C5O)CC[C@@]45C[C@@]35CC[C@]21C)C(C)(C)O (some centres not stated)	U-251	16.8 µM (inactive)
O=C(c1cc(Cl)cc(Cl)c1)N(Cc1cccnc1)C(=S)N(Cc1cccnc1)C(=O)c1cc(Cl)cc(Cl)c1	U-251	22.2 µM (inactive)
CC(C)(C)C1CCC(=O)/C(=C/CC2CC(=O)N(c3ccccc3)C(=O)C2)C1 (configuration not stated)	U-251	14.9 µM (inactive)
OCC1OC(NC(=S)NCSCCC(F)(F)C(F)(F)C(F)(F)C(F)(F)C(F)(F)C(F)(F)F)C(O)C(O)C1O (configuration not stated)	U-251	17.5 µM (inactive)
O=C(C[n+]1ccc2ccccc2c1)c1ccc2ccc3ccccc3c2c1	U-251	2.21 µM (inactive)
CCCCON1C[C@H](OC(C)=O)C(OC(C)=O)[C@H](OC(C)=O)C1 (some centres not stated)	U-251	> 100 µM (inactive)
COCN1C(=O)[C@@H]2CCCN2C(=O)c2ccc(N)cc21	U-251	> 100 µM (inactive)
O=C(O)c1[nH]c2c([N+](=O)[O-])cc([N+](=O)[O-])cc2c1C(=O)O	U-251	> 100 µM (inactive)
Cc1ccc(C2=C(c3ccccc3)C(Br)(c3ccccc3)C(c3ccccc3)=C2c2ccc(C)cc2)cc1	U-251	> 100 µM (inactive)
Cc1cc(C)nc(NS(=O)(=O)c2ccc(NC(=O)c3cccc4c(NNc5ccc(S(=O)(=O)N=C(N)N)cc5)c5ccccc5nc34)cc2)n1	U-251	> 50 µM (inactive)

====

Below is a list of entries, each paired with its recorded GI50 value.
Test system: T47D
experiment summary: NCI tumour cell line growth inhibition, 48 h
The source made the active and inactive calls. Rule as the data show it: active = GI50 up to about 1.1 µM and inactive = higher.
measure name: GI50

molecule	measure name	test result
C#C/C=C/CC1OC(C(Br)CC)CC(Br)C2CC1O2 (stereo not drawn)	GI50	75.3 µM (inactive)
CN(C)/C=N/S(=O)(=O)c1nn2c(C=O)c(-c3cc4ccccc4oc3=O)nc2s1	GI50	4.09 µM (inactive)
Cc1c(C)c(S(=O)(=O)N(CCCCN)OCCCN)c(C)c2c1OC(C)(C)CC2	GI50	23.7 µM (inactive)

====

Test system: K562
experiment summary: NCI tumour cell line growth inhibition, 48 h
Calls of active or inactive are those of the source. Rule as the data show it: active = GI50 up to about 1.1 µM and inactive = higher.
measure name: GI50

molecule	test result
CNC(=O)Oc1ccc(-c2cn3cc(OC(=O)NC)ccc3n2)cc1	22.6 µM (inactive)
C=C1CCC2[C@](C)(CCC[C@]2(C)C(=O)O)[C@@H]1CCc1ccoc1 (some centres not stated)	53.5 µM (inactive)
CCCCCCCCCC[C@@H](O)[C@@H]1CC[C@@H]([C@@H]2CC[C@@H]([C@@H](O)CCCCCCCCCCC(O)CC3=CC(C)OC3=O)O2)O1 (some centres not stated)	0.248 µM (active)
C[B@@-]1(c2ccc(C(F)(F)F)cc2)N[C@@H](Cc2ccccc2)C(=O)O1	> 100 µM (inactive)
Clc1nncc2sc(-c3ccccc3)nc12	7.71 µM (inactive)
Cc1nc2c(=O)[nH]c(=O)n(C)c2[nH]c1=O.c1ccncc1	> 100 µM (inactive)
CC1CCCN(CP(=O)(c2ccccc2)c2ccccc2)C1 (configuration not stated)	> 100 µM (inactive)
COc1cc(NCC2COc3c(ccc(OC)c3OC)C2=O)c([N+](=O)[O-])cc1OC (configuration not stated)	31 µM (inactive)
COC(OC)c1cc2c(cc1C=O)OCO2	64.9 µM (inactive)
Cc1nc(N)c(N2CCNCC2)c(O)n1	> 100 µM (inactive)
CC(=O)N(CCc1ccccc1)C(C#N)c1ccccc1 (configuration not stated)	> 100 µM (inactive)
COc1ccc(C2C(Cl)C(=O)N2NC(=O)Cc2ccccc2)cc1OC (configuration not stated)	> 100 µM (inactive)
C=C1CN=C(Nc2ccc(Cl)cc2)S1	96.8 µM (inactive)
C#CCOCn1cnc2c(N)ncnc21	> 100 µM (inactive)
CCOP1(=O)CC(C)=C(Cl)C(OC)C1 (configuration not stated)	30.5 µM (inactive)
COCCN1C(=O)C2c3[nH]c4ccccc4c3C3CCC(C(C)(C)C)CC3C2C1=O (configuration not stated)	18.9 µM (inactive)
CC(C)(C)c1cc(C(CO)OCCOCCO)cc(C(C)(C)C)c1O (configuration not stated)	> 100 µM (inactive)
CC(=O)O[C@@H](C1C[C@@H](C)[C@H]2[C@@](O)(O1)[C@H](O)[C@@]1(C)C3=CC[C@H]4C(C)(C)[C@@H](OC5OCC(O)C(O)C5O)CC[C@@]45C[C@@]35CC[C@]21C)C(C)(C)O (some centres not stated)	28.2 µM (inactive)
Cc1coc2c1C(=O)C(=O)c1ccccc1-2	0.335 µM (active)
O=CNc1ncn[nH]1	> 100 µM (inactive)
OCC1OC(NC(=S)NCSCCC(F)(F)C(F)(F)C(F)(F)C(F)(F)C(F)(F)C(F)(F)F)C(O)C(O)C1O (configuration not stated)	19.9 µM (inactive)
CC(=O)N(CCN)CCN	> 10 µM (inactive)
